The measured values listed here are drawn from ChEMBL document CHEMBL2424551.

system: KM12; test: Growth inhibition of human KM12 cells at 10 uM after 48 hrs by SRB assay; format: functional; settings: KM12, 48 h, read-out: GI
recorded.metric: inhibition of growth at 10 µM (%)

{"columns": ["molecule", "recorded.metric", "reading.unit", "relation.operator", "experimental.value"],
 "data": [
  ["Nc1ccc(Sc2ccc3c4c2cccc4c(=O)n2c4ccccc4nc32)cc1", "inhibition of growth at 10 µM", "%", "=", 26.4],
  ["O=c1c2cccc3c(Nc4ccc(Br)cn4)ccc(c32)c2nc3ccccc3n12", "inhibition of growth at 10 µM", "%", "=", 22.8],
  ["O=c1c2cccc3c(Nc4c(F)cccc4F)ccc(c32)c2nc3ccccc3n12", "inhibition of growth at 10 µM", "%", "=", 21.1],
  ["O=c1c2cccc3c(N4CCCC4)ccc(c32)c2nc3ccccc3n12", "inhibition of growth at 10 µM", "%", "<", 20],
  ["O=c1c2cccc3c(N4CCOCC4)ccc(c32)c2nc3ccccc3n12", "inhibition of growth at 10 µM", "%", "=", 21.9],
  ["O=c1c2cccc3c(NC4CCCCC4)ccc(c32)c2nc3ccccc3n12", "inhibition of growth at 10 µM", "%", "<", 20],
  ["O=c1c2cccc3c(Nc4ccc(F)cc4)ccc(c32)c2nc3ccccc3n12", "inhibition of growth at 10 µM", "%", "=", 25.6],
  ["CCCCNc1ccc2c3c1cccc3c(=O)n1c3ccccc3nc21", "inhibition of growth at 10 µM", "%", "=", 22.3],
  ["O=c1[nH]cc(F)c(=O)[nH]1 [FLUOROURACIL]", "inhibition of growth at 10 µM", "%", "=", 40.7],
  ["O=c1c2cccc3c(NCCO)ccc(c32)c2nc3ccccc3n12", "inhibition of growth at 10 µM", "%", "<", 20],
  ["O=c1c2cccc3c(Nc4ccccn4)ccc(c32)c2nc3ccccc3n12", "inhibition of growth at 10 µM", "%", "=", 25.2]
]}
